Data provenance is patent US9233096B2.

System: ethanol-induced gastric ulceration in male Wister rats
ASSAY REMARKS: Antiulcerogenic activity, ethanol-induced gastric ulcer model
Assay type: in vivo
ASSAY SETUP: 100 mg/kg orally, three doses before ethanol 50% 10 ml/kg, mean ± SD, n = 6
ENDPOINT: No. of ulcers
Keep the answer to the number alone.

Exercise: Given `COc1ccc(-c2cc(=O)c3c(O)cc(O[C@@H]4O[C@H](CO[C@@H]5O[C@@H](C)[C@H](O)[C@@H](O)[C@H]5O)[C@@H](O)[C@H](O)[C@H]4O)cc3o2)cc1O` , state its recorded No. of ulcers.
Key: 2.003

Exercise: Given CNC(=C[N+](=O)[O-])NCCSCc1ccc(CN(C)C)o1 [Rantidine] , state its recorded No. of ulcers.
Key: 3.200

Exercise: Given `C[C@@H]1O[C@@H](O[C@H]2[C@H](Oc3cc(O)c4c(c3)O[C@H](c3ccc(O)cc3)CC4=O)O[C@H](CO)[C@@H](O)[C@@H]2O)[C@H](O)[C@H](O)[C@H]1O` , state its recorded No. of ulcers.
Key: 3.167

Exercise: Given `O=c1cc(-c2ccc(O)cc2)oc2cc(O)cc(O)c12` , state its recorded No. of ulcers.
Key: 4.122
